protocolNotes: Plasma protein binding
Type: in vitro ADME
runParameters: plasma
metric: fraction unbound

{"molecule": "CC(NC(C)(C)C)C(=O)c1cccc(Cl)c1.Cl (racemic) [bupropion, hydrochloride]", "metric": "fraction unbound", "experimentalValue": 0.16}

====

protocolNotes: Plasma drug concentration cutoffs for treatment adherence
runParameters: human, in vivo

{"molecule": "CC(NC(C)(C)C)C(=O)c1cccc(Cl)c1.Cl (racemic) [bupropion, hydrochloride]", "concentration at 24 h": "~10 ng/mL"}

====

protocolNotes: Pharmacokinetics after administration of the subject combination
runParameters: human, plasma, oral

{"compound": "CC(NC(C)(C)C)C(=O)c1cccc(Cl)c1.Cl (racemic)", "Tmax": "~2 h"}

Recorded values, source patent US20240165104A1.
